IC50 values, listed per item
# Test system: CCRF-CEM
# protocol_summary: Antiproliferative activity against human CCRF-CEM cells assessed as cell viability measured after 4 days by MTT assay
# Type: functional, cell-based
# conditions_used: 96 h
readout_kind: IC50 (nM)

1. NCCCC[C@H](NC(=O)c1ccc2oc3cc(=O)c4ncccc4c-3nc2c1)C(=O)O :: 100
2. N[C@@H](CCCCNC(=O)c1ccc2oc3cc(=O)c4ncccc4c-3nc2c1)C(=O)O :: 40
3. N[C@@H](CCCCNC(=O)c1ccc2nc3c4ncccc4c(=O)cc-3oc2c1)C(=O)O :: 150
4. COc1cccc2c1C(=O)c1c(O)c3c(c(O)c1C2=O)C[C@@](O)(C(=O)CO)C[C@@H]3O[C@H]1C[C@H](N)[C@H](O)[C@H](C)O1 [DOXORUBICIN] :: 20
5. O=c1cc2oc3ccccc3nc-2c2ncccc12 :: 90

---

Reported pIC50 values follow for various molecules
# Test system: ACHN
# protocol_summary: Antiproliferative activity against human ACHN cells assessed as cell viability measured after 4 days by MTT assay
# Assay type: functional, cell-based
# conditions_used: 96 h
pIC50: −log10 of the molar value.
readout_kind: pIC50

1. NCCCC[C@H](NC(=O)c1ccc2nc3c4cccnc4c(=O)cc-3oc2c1)C(=O)O :: 8.10
2. N[C@@H](CCCCNC(=O)c1ccc2nc3c4cccnc4c(=O)cc-3oc2c1)C(=O)O :: 8.30
3. NCCCC[C@H](NC(=O)c1ccc2oc3cc(=O)c4ncccc4c-3nc2c1)C(=O)O :: 7.00
4. N[C@@H](CCCCNC(=O)c1ccc2oc3cc(=O)c4ncccc4c-3nc2c1)C(=O)O :: 7.30
5. NCCCC[C@H](NC(=O)c1ccc2nc3c4ncccc4c(=O)cc-3oc2c1)C(=O)O :: 7.22
6. NCCCC[C@H](NC(=O)c1ccc2oc3cc(=O)c4cccnc4c-3nc2c1)C(=O)O :: 7.10
7. N[C@@H](CCCCNC(=O)c1ccc2oc3cc(=O)c4cccnc4c-3nc2c1)C(=O)O :: 7.00
8. N[C@@H](CCCCNC(=O)c1ccc2nc3c4ncccc4c(=O)cc-3oc2c1)C(=O)O :: 7.15
9. O=c1cc2oc3ccccc3nc-2c2ncccc12 :: 6.64

---

# Test system: Calf thymus DNA
# protocol_summary: Binding affinity to calf thymus DNA assessed as lamda max by UV-vis spectroscopy
# Format: nucleic-acid assay
# conditions_used: Bos taurus
Below is a list of entries, each paired with its recorded Activity value.
readout_kind: Activity

1) NCCCC[C@H](NC(=O)c1ccc2nc3c4ncccc4c(=O)cc-3oc2c1)C(=O)O :: 451
2) N[C@@H](CCCCNC(=O)c1ccc2oc3cc(=O)c4cccnc4c-3nc2c1)C(=O)O :: 441
3) NCCCC[C@H](NC(=O)c1ccc2nc3c4cccnc4c(=O)cc-3oc2c1)C(=O)O :: 443
4) N[C@@H](CCCCNC(=O)c1ccc2nc3c4ncccc4c(=O)cc-3oc2c1)C(=O)O :: 459
5) N[C@@H](CCCCNC(=O)c1ccc2oc3cc(=O)c4ncccc4c-3nc2c1)C(=O)O :: 436
6) NCCCC[C@H](NC(=O)c1ccc2oc3cc(=O)c4ncccc4c-3nc2c1)C(=O)O :: 437
7) N[C@@H](CCCCNC(=O)c1ccc2nc3c4cccnc4c(=O)cc-3oc2c1)C(=O)O :: 443
8) NCCCC[C@H](NC(=O)c1ccc2oc3cc(=O)c4cccnc4c-3nc2c1)C(=O)O :: 445

---

# Tested on: Calf thymus DNA
# protocol_summary: Binding affinity to calf thymus DNA assessed as hypochromism by UV-vis spectroscopy
# conditions_used: Bos taurus
readout_kind: Activity

1. NCCCC[C@H](NC(=O)c1ccc2nc3c4ncccc4c(=O)cc-3oc2c1)C(=O)O :: 26%
2. NCCCC[C@H](NC(=O)c1ccc2nc3c4cccnc4c(=O)cc-3oc2c1)C(=O)O :: 28
3. NCCCC[C@H](NC(=O)c1ccc2oc3cc(=O)c4ncccc4c-3nc2c1)C(=O)O :: 30%
4. N[C@@H](CCCCNC(=O)c1ccc2oc3cc(=O)c4ncccc4c-3nc2c1)C(=O)O :: 39%
5. N[C@@H](CCCCNC(=O)c1ccc2oc3cc(=O)c4cccnc4c-3nc2c1)C(=O)O :: 17%
6. N[C@@H](CCCCNC(=O)c1ccc2nc3c4cccnc4c(=O)cc-3oc2c1)C(=O)O :: 58%
7. NCCCC[C@H](NC(=O)c1ccc2oc3cc(=O)c4cccnc4c-3nc2c1)C(=O)O :: 19%
8. N[C@@H](CCCCNC(=O)c1ccc2nc3c4ncccc4c(=O)cc-3oc2c1)C(=O)O :: 17%

---

# System: Calf thymus DNA
# protocol_summary: Binding affinity to calf thymus DNA assessed as isosbestic point by UV-vis spectroscopy
# Assay type: nucleic-acid assay
# conditions_used: Bos taurus
Threshold 300 nm: Activity strictly smaller gives T, otherwise F.

1. NCCCC[C@H](NC(=O)c1ccc2nc3c4cccnc4c(=O)cc-3oc2c1)C(=O)O :: F
2. N[C@@H](CCCCNC(=O)c1ccc2oc3cc(=O)c4ncccc4c-3nc2c1)C(=O)O :: F
3. NCCCC[C@H](NC(=O)c1ccc2oc3cc(=O)c4ncccc4c-3nc2c1)C(=O)O :: F
4. N[C@@H](CCCCNC(=O)c1ccc2oc3cc(=O)c4cccnc4c-3nc2c1)C(=O)O :: T
5. N[C@@H](CCCCNC(=O)c1ccc2nc3c4cccnc4c(=O)cc-3oc2c1)C(=O)O :: F
6. NCCCC[C@H](NC(=O)c1ccc2oc3cc(=O)c4cccnc4c-3nc2c1)C(=O)O :: T
7. N[C@@H](CCCCNC(=O)c1ccc2nc3c4ncccc4c(=O)cc-3oc2c1)C(=O)O :: F

---

Each entry below lists one item and its recorded Activity value.
# System: Calf thymus DNA
# protocol_summary: Binding affinity to calf thymus DNA assessed as red shift by UV-vis spectroscopy
# Type: nucleic-acid assay
# Design: unit not given here
# conditions_used: Bos taurus
readout_kind: Activity

1. NCCCC[C@H](NC(=O)c1ccc2oc3cc(=O)c4ncccc4c-3nc2c1)C(=O)O :: 440
2. NCCCC[C@H](NC(=O)c1ccc2nc3c4ncccc4c(=O)cc-3oc2c1)C(=O)O :: 455
3. N[C@@H](CCCCNC(=O)c1ccc2nc3c4ncccc4c(=O)cc-3oc2c1)C(=O)O :: 461
4. N[C@@H](CCCCNC(=O)c1ccc2nc3c4cccnc4c(=O)cc-3oc2c1)C(=O)O :: 448
5. N[C@@H](CCCCNC(=O)c1ccc2oc3cc(=O)c4cccnc4c-3nc2c1)C(=O)O :: 446
6. NCCCC[C@H](NC(=O)c1ccc2oc3cc(=O)c4cccnc4c-3nc2c1)C(=O)O :: 447
7. N[C@@H](CCCCNC(=O)c1ccc2oc3cc(=O)c4ncccc4c-3nc2c1)C(=O)O :: 440
8. NCCCC[C@H](NC(=O)c1ccc2nc3c4cccnc4c(=O)cc-3oc2c1)C(=O)O :: 447

---

# System: MCF7
# protocol_summary: Antiproliferative activity against human MCF7 cells assessed as cell viability measured after 4 days by MTT assay
# Format: functional, cell-based
# conditions_used: MCF7, 96 h
pIC50: −log10 of the molar value.
readout_kind: pIC50

1) O=c1cc2oc3ccccc3nc-2c2cccnc12 :: 6.64
2) N[C@@H](CCCCNC(=O)c1ccc2nc3c4cccnc4c(=O)cc-3oc2c1)C(=O)O :: 8.52
3) NCCCC[C@H](NC(=O)c1ccc2oc3cc(=O)c4ncccc4c-3nc2c1)C(=O)O :: 7.00
4) N[C@@H](CCCCNC(=O)c1ccc2nc3c4ncccc4c(=O)cc-3oc2c1)C(=O)O :: 6.92
5) N[C@@H](CCCCNC(=O)c1ccc2oc3cc(=O)c4ncccc4c-3nc2c1)C(=O)O :: 7.22
6) NCCCC[C@H](NC(=O)c1ccc2nc3c4ncccc4c(=O)cc-3oc2c1)C(=O)O :: 7.30
7) N[C@@H](CCCCNC(=O)c1ccc2oc3cc(=O)c4cccnc4c-3nc2c1)C(=O)O :: 6.92
8) NCCCC[C@H](NC(=O)c1ccc2nc3c4cccnc4c(=O)cc-3oc2c1)C(=O)O :: 8.15
9) O=c1cc2oc3ccccc3nc-2c2ncccc12 :: 6.43
10) NCCCC[C@H](NC(=O)c1ccc2oc3cc(=O)c4cccnc4c-3nc2c1)C(=O)O :: 7.00

---

# IC50 per entry
# Tested on: CCRF-CEM
# protocol_summary: Antiproliferative activity against human CCRF-CEM cells assessed as cell viability measured after 4 days by MTT assay
# Assay type: functional, cell-based
# conditions_used: 96 h
readout_kind: IC50

1. NCCCC[C@H](NC(=O)c1ccc2oc3cc(=O)c4cccnc4c-3nc2c1)C(=O)O :: 160 nM
2. N[C@@H](CCCCNC(=O)c1ccc2nc3c4cccnc4c(=O)cc-3oc2c1)C(=O)O :: 3 nM
3. NCCCC[C@H](NC(=O)c1ccc2nc3c4cccnc4c(=O)cc-3oc2c1)C(=O)O :: 20 nM
4. N[C@@H](CCCCNC(=O)c1ccc2oc3cc(=O)c4cccnc4c-3nc2c1)C(=O)O :: 150 nM
5. NCCCC[C@H](NC(=O)c1ccc2nc3c4ncccc4c(=O)cc-3oc2c1)C(=O)O :: 17 nM
